Parameter: Relative cell viability (%). Scope: all listed entries.
Tested on: HT29
experimental conditions: 72 h, relative to DMSO; 10 µM
Protocol: To investigate the key signaling pathways and biological processes involved in CRC progression, we analyzed the National Center for Biotechnology Information Gene Expression Omnibus (GEO) dataset GSE115313, which included 42 CRC and paired normal tissues (Figure 1A). […] Absorbance at the wavelength of 450 nm was measured using an automated microplate spectrophotometer (BioTek Instruments, Winooski, VT, USA).
Counter-ions that a name gives are not always drawn.

| molecule | Relative cell viability (%) / % |
| --- | --- |
| CNC(=O)c1ccc(N2C(=S)N(c3ccc(C#N)c(C(F)(F)F)c3)C(=O)C2(C)C)cc1F [Enzalutamide (MDV3100)] | 86.76 |
| COc1cc(C(=O)O)ccc1NC(=O)[C@@H]1N[C@@H](CC(C)(C)C)[C@](C#N)(c2ccc(Cl)cc2F)[C@H]1c1cccc(Cl)c1F [Idasanutlin (RG-7388)] | 98.29 |
| Cc1ccc(Cl)c(Nc2ccccc2C(=O)O)c1Cl [Meclofenamate Sodium] | 83.03 |
| C[N+](C)(C)C[C@H](O)CC(=O)[O-] | 116.1 |
| Oc1cc(O)c(Cl)cn1 | 117.6 |
| COc1ccc([C@@H]2Sc3ccccc3N(CCN(C)C)C(=O)[C@@H]2OC(C)=O)cc1 [Diltiazem HCl] | 67.8 |
| COc1cccc2c1C(=O)c1c(O)c3c(c(O)c1C2=O)C[C@@](O)(C(=O)CO)C[C@@H]3O[C@H]1C[C@H](N)[C@@H](O)[C@H](C)O1 [Epirubicin HCl] | 10.44 |
| COC(=O)C1=CCCN(C)C1 | 59.22 |

====

System: HT29
experimental conditions: 72 h, relative to DMSO; 10 µM
Structures can show the parent of a compound that is named as a salt.
Rule: Relative cell viability (%) below 70% gives Satisfied. Equal to or above 70% gives Not satisfied.

| molecule | answer label |
| --- | --- |
| CN1CCC(=C2c3ccccc3CC(=O)c3sccc32)CC1 [Ketotifen Fumarate] | Not satisfied |
| CC(CN1c2ccccc2Sc2ccccc21)N(C)C (stereo not shown) [Promethazine HCl] | Satisfied |
| C[C@@H](CN1CC(=O)NC(=O)C1)N1CC(=O)NC(=O)C1 [Dexrazoxane HCl (ICRF-187, ADR-529)] | Not satisfied |
| O=C(O)CSCC(=O)NC1CCSC1=O (stereo not shown) | Not satisfied |
| CCC1=C[C@@H]2CN(C1)Cc1c([nH]c3ccccc13)[C@@](C(=O)OC)(c1cc3c(cc1OC)N(C)[C@H]1[C@@](O)(C(=O)OC)[C@H](OC(C)=O)[C@]4(CC)C=CCN5CC[C@]31[C@@H]54)C2 [Vinorelbine Tartrate] | Satisfied |
| O=C(Nc1cccc2c(=O)cc(-c3nnn[nH]3)oc12)c1ccc(OCCCCc2ccccc2)cc1 | Not satisfied |
| OCCOc1ccc(/C(=C(/CCCl)c2ccccc2)c2ccccc2)cc1 | Not satisfied |
| COc1ccc(C[C@H](N)C(=O)N[C@H]2[C@@H](O)[C@H](n3cnc4c(N(C)C)ncnc43)O[C@@H]2CO)cc1 [Puromycin 2HCl] | Satisfied |
| O=C(O)C[C@H](O)C[C@H](O)/C=C/c1c(C2CC2)nc2ccccc2c1-c1ccc(F)cc1 | Satisfied |
